// values below are reported OX1 pKi (SPA binding)
# assaySystem: human Orexin type 1 receptors (Homo sapiens (Human), UniProt O43613)
# Sequence (O43613 whole entry): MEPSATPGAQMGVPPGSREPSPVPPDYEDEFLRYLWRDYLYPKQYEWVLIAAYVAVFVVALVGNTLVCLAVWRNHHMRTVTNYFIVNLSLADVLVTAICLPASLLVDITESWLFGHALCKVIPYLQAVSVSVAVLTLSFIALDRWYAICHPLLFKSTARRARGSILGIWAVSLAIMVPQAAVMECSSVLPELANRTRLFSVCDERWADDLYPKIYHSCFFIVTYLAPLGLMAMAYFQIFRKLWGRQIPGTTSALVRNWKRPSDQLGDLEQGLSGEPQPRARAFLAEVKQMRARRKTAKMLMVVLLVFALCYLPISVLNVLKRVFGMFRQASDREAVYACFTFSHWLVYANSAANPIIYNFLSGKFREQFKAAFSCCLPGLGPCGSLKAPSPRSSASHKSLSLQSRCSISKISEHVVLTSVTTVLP
# experimentalProtocol: Scintillation Proximity Assay (SPA) binding assay, [3H]SB-674042 displacement, CHO-hOX1 membranes
# measurementConditions: Table 2, [3H]SB-674042 2 nM
# Procedure: Scintillation Proximity Assay (SPA) Binding Assays CHO cells stably transfected with human Orexin type 1 receptors (CHO-hOX1) or HEK-293 cells transiently transfected with human Orexin type 2 receptors (HEK-hOX2) were collected after 16 h induction with 5 mM sodium butyrate. […] Nonspecific binding was measured in the presence of 1 μM Almorexant. Assay plates were then incubated at room temperature for 3 h before being counted in a Microbeta scintillation counter (PerkinElmer). […]

Below are worked cases with known answers.
Problem: Notebook: pull reported OX1 pKi (SPA binding) for human Orexin type 1 receptors (Homo sapiens (Human), UniProt O43613), entry Cc1ccc(-n2nccn2)c(C(=O)N2C3CC(C3)[C@@H](C)C2CNc2cnc3cc(F)ccc3n2)n1 (single isomer, unassigned) [Example 200]
Solution: 8.24

Problem: Notebook: pull reported OX1 pKi (SPA binding) for human Orexin type 1 receptors (Homo sapiens (Human), UniProt O43613), entry C[C@@H]1C2CC(C2)N(C(=O)c2cc(F)ccc2-n2nccn2)C1CNc1ccc(C(F)(F)F)cn1 (single isomer, unassigned) [Example 192]
Solution: 8.13

Turning to the following compound.
Problem: Notebook: pull reported OX1 pKi (SPA binding) for human Orexin type 1 receptors (Homo sapiens (Human), UniProt O43613), entry C[C@@H]1C2CC(C2)N(C(=O)c2cc(Cl)ccc2-n2nccn2)C1CNc1cnc2ncccc2n1 (mixture of isomers) [Example 206]
Solution: 7.79

====

# assaySystem: human Orexin type 2 receptors (Homo sapiens (Human))
# Sequence (O43614 whole entry): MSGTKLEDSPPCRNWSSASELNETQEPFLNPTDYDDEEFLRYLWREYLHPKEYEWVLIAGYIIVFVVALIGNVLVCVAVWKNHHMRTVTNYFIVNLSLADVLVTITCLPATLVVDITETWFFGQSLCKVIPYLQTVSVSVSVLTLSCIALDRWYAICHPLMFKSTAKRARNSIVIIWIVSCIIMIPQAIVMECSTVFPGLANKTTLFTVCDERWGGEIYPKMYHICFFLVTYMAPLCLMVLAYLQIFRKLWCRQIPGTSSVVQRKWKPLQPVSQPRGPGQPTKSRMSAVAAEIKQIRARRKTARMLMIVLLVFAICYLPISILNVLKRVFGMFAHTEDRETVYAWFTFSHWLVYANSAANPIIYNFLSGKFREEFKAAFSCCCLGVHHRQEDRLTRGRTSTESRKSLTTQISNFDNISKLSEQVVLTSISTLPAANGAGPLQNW
# experimentalProtocol: Scintillation Proximity Assay (SPA) binding assay, [3H]EMPA displacement, HEK-hOX2 membranes
# measurementConditions: Table 2, [3H]EMPA 2 nM
# Experimental: Scintillation Proximity Assay (SPA) Binding Assays […] The binding was performed in a final volume of 200 μl. […] Nonspecific binding was measured in the presence of 1 μM Almorexant. Assay plates were then incubated at room temperature for 3 h before being counted in a Microbeta scintillation counter (PerkinElmer). Data were analysed by non-linear regression analysis using XLfit Software.
measurementType: OX2 pKi (SPA binding)
Answer using only a numeral; do not append any unit.

Below are worked cases with known answers.
Problem: Given the molecule Cc1cnn(-c2ccc(C)nc2C(=O)N2C3CC(C3)[C@@H](C)C2COc2ccc(F)cc2)c1 (mixture of isomers) [Example 135] , what is its reported OX2 pKi (SPA binding)?
Solution: 6.39

Problem: Given the molecule Cc1nc(C(=O)N2C3CC(C3)[C@H](C)C2COc2ccc(F)cc2)c(-c2ccccn2)s1 (mixture of isomers) [Example 123] , what is its reported OX2 pKi (SPA binding)?
Solution: 6.12

Problem: Given the molecule Cc1ccc(-n2nccn2)c(C(=O)N2C3CC(C3)[C@@H](C)C2CNc2cnc3cc(F)ccc3n2)n1 (single isomer, unassigned) [Example 200] , what is its reported OX2 pKi (SPA binding)?
Solution: 6.37

Problem: Given the molecule C[C@@H]1C2CC(C2)N(C(=O)c2cc(Cl)ccc2-n2nccn2)C1CNc1cnc2cc(F)ccc2n1 (single isomer, unassigned) [Example 209] , what is its reported OX2 pKi (SPA binding)?
Solution: 6.8

Problem: Given the molecule Cc1nc(C(=O)N2C3CC(C3)[C@H](C)C2COc2ccc(F)cc2)c(-c2cnccn2)s1 (mixture of isomers) [Example 121] , what is its reported OX2 pKi (SPA binding)?
Solution: 5.54

Turning to the following molecule.
Problem: Given the molecule C[C@@H]1C2CC(C2)N(C(=O)c2cc(F)ccc2-n2nccn2)C1CNc1nc2cccnc2s1 (single isomer, unassigned) [Example 230] , what is its reported OX2 pKi (SPA binding)?
Solution: 5.32

====

// values below are reported log10(Ki)
# assaySystem: human Orexin type 1 receptors (Homo sapiens (Human))
# experimentalProtocol: Scintillation Proximity Assay (SPA) binding assay, [3H]SB-674042 displacement, CHO-hOX1 membranes
# measurementConditions: Table 1, [3H]SB-674042 2 nM, read-out: OX1 pKi (SPA binding) (converted)
# Description: Scintillation Proximity Assay (SPA) Binding Assays CHO cells stably transfected with human Orexin type 1 receptors (CHO-hOX1) or HEK-293 cells transiently transfected with human Orexin type 2 receptors (HEK-hOX2) were collected after 16 h induction with 5 mM sodium butyrate. […] Nonspecific binding was measured in the presence of 1 μM Almorexant. Assay plates were then incubated at room temperature for 3 h before being counted in a Microbeta scintillation counter (PerkinElmer). […]
// units: nM (pre-log); metric: Ki; scale: log10

Below are worked cases with known answers.
Problem: Notebook: pull reported log10(Ki) for human Orexin type 1 receptors (Homo sapiens (Human)), entry Cc1ccc(-c2ncccn2)c(C(=O)N2C3CC(C3)[C@@H](C)[C@@H]2COc2ccc(F)cc2)n1 (single isomer, unassigned)
Solution: 0.29

Problem: Notebook: pull reported log10(Ki) for human Orexin type 1 receptors (Homo sapiens (Human)), entry Cc1ccc(-c2nccs2)c(C(=O)N2C3CC(C3)[C@H](C)C2COc2ccc(F)cc2)n1 (single isomer, unassigned)
Solution: 0.51

Problem: Notebook: pull reported log10(Ki) for human Orexin type 1 receptors (Homo sapiens (Human)), entry Cc1nc(C(=O)N2C3CC(C3)[C@@H](C)[C@@H]2COc2cc3ccccc3cn2)c(-c2ccccc2)s1 (single isomer, unassigned) [Example 88]
Solution: 1.08

Others:
Problem: Notebook: pull reported log10(Ki) for human Orexin type 1 receptors (Homo sapiens (Human)), entry Cc1ccc(-n2nccn2)c(C(=O)N2C3CC(C3)[C@H](C)C2COc2ccc(F)cc2)n1 (single isomer, unassigned)
Solution: 0.80

Problem: Notebook: pull reported log10(Ki) for human Orexin type 1 receptors (Homo sapiens (Human)), entry Cc1nc(C(=O)N2C3CC(C3)[C@@H](C)[C@@H]2COc2cc3ccccc3cn2)c(-c2ccccc2)s1 (single isomer, unassigned) [Example 86]
Solution: 1.95

Problem: Notebook: pull reported log10(Ki) for human Orexin type 1 receptors (Homo sapiens (Human)), entry Cc1nc(C(=O)N2C3CC(C3)[C@H](C)[C@@H]2COc2cc3ccccc3cn2)c(-c2ccccc2)s1 (single isomer, unassigned)
Solution: 0.14

Problem: Notebook: pull reported log10(Ki) for human Orexin type 1 receptors (Homo sapiens (Human)), entry Cc1ccc(-c2ncccn2)c(C(=O)N2C3CC(C3)[C@H](C)[C@@H]2COc2ccc(F)cc2)n1 (single isomer, unassigned)
Solution: 0.54

====

// values below are reported OX2 pKi (SPA binding)
# assaySystem: human Orexin type 2 receptors (Homo sapiens (Human))
# experimentalProtocol: Scintillation Proximity Assay (SPA) binding assay, [3H]EMPA displacement, HEK-hOX2 membranes
# measurementConditions: Table 2, [3H]EMPA 2 nM
# Procedure: Scintillation Proximity Assay (SPA) Binding Assays […] The binding was performed in a final volume of 200 μl. […] Nonspecific binding was measured in the presence of 1 μM Almorexant. Assay plates were then incubated at room temperature for 3 h before being counted in a Microbeta scintillation counter (PerkinElmer). Data were analysed by non-linear regression analysis using XLfit Software.
Answer using only a numeral; do not append any unit.

Below are worked cases with known answers.
Problem: Given the molecule C[C@H]1C2CC(C2)N(C(=O)c2cc(F)ccc2-n2nccn2)C1COc1ccc(F)cc1 (mixture of isomers) , what is its reported OX2 pKi (SPA binding)?
Solution: 5.61

Problem: Given the molecule Cc1ccc(-n2nccn2)c(C(=O)N2C3CC(C3)[C@@H](C)C2CNc2ccc(C(F)(F)F)cn2)n1 (single isomer, unassigned) [Example 183] , what is its reported OX2 pKi (SPA binding)?
Solution: 5.26

Problem: Given the molecule Cc1ccc(-n2nccn2)c(C(=O)N2C3CC(C3)[C@@H](C)C2CNc2cccc(C(F)(F)F)n2)n1 (mixture of isomers) , what is its reported OX2 pKi (SPA binding)?
Solution: 5.76

Problem: Given the molecule C[C@@H]1C2CC(C2)N(C(=O)c2cc(Cl)ccc2-n2nccn2)C1CNc1ncc(C(F)(F)F)cn1 (single isomer, unassigned) [Example 241] , what is its reported OX2 pKi (SPA binding)?
Solution: 5.59

Problem: Given the molecule C[C@@H]1C2CC(C2)N(C(=O)c2cc(F)ccc2-n2nccn2)C1CNc1cnc2ccccc2n1 (single isomer, unassigned) [Example 189] , what is its reported OX2 pKi (SPA binding)?
Solution: 5.92

Others:
Problem: Given the molecule C[C@@H]1C2CC(C2)N(C(=O)c2nn(C)cc2-c2ncccn2)C1CNc1ccc(C(F)(F)F)cn1 (single isomer, unassigned) [Example 215] , what is its reported OX2 pKi (SPA binding)?
Solution: 4.79

Problem: Given the molecule C[C@@H]1C2CC(C2)N(C(=O)c2cc(C#N)ccc2-n2nccn2)C1CNc1nc2cccnc2s1 (single isomer, unassigned) [Example 233] , what is its reported OX2 pKi (SPA binding)?
Solution: 5.11

Problem: Given the molecule C[C@@H]1C2CC(C2)N(C(=O)c2cc(F)ccc2-n2nccn2)C1CNc1cnc(C(F)(F)F)cn1 (single isomer, unassigned) [Example 223] , what is its reported OX2 pKi (SPA binding)?
Solution: 4.98

Problem: Given the molecule C[C@@H]1C2CC(C2)N(C(=O)c2cc(C#N)ccc2-n2nccn2)C1CNc1cnc(C(F)(F)F)cn1 (mixture of isomers) , what is its reported OX2 pKi (SPA binding)?
Solution: 4.82

Problem: Given the molecule Cc1nc(C(=O)N2C3CC(C3)[C@H](C)C2COc2ccc(F)cc2)c(-c2ccccn2)s1 (single isomer, unassigned) [Example 124] , what is its reported OX2 pKi (SPA binding)?
Solution: 6.3

Problem: Given the molecule Cc1ccc(-n2nccn2)c(C(=O)N2C3CC(C3)[C@@H](C)C2CNc2cnc(C(F)(F)F)cn2)c1 (stereo partly shown) [Example 254] , what is its reported OX2 pKi (SPA binding)?
Solution: 5.12

Problem: Given the molecule Cc1nc(C(=O)N2C3CC(C3)[C@H](C)C2COc2ccc(F)cn2)c(-c2ccccn2)s1 (mixture of isomers) , what is its reported OX2 pKi (SPA binding)?
Solution: 5.47

Problem: Given the molecule C[C@@H]1C2CC(C2)N(C(=O)c2cc(F)ccc2-n2nccn2)C1CNc1cnc(C2CC2)cn1 (stereo partly shown) , what is its reported OX2 pKi (SPA binding)?
Solution: 5.35
